target: CCL13_HUMAN (Homo sapiens, UniProt Q99616); test: Biolayer interferometry (BLI) binding
Sequence (Q99616 17-98): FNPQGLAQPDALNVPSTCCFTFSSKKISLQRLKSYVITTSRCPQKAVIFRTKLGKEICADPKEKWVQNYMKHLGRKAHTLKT
pKd: −log10 of the molar value.
Each item that follows carries a reported pKd.

Molecule	pKd
P974_AMBCA: tick CKBP, Amblyomma cajennense; ACA-01 stated identical (protein, Amblyomma cajennense, tick CKBP, Amblyomma cajennense; ACA-01 stated identical) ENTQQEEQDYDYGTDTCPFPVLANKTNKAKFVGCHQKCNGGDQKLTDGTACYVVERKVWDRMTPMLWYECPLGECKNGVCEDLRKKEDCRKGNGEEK	7.64
P1243_AMBAM: tick CKBP, Amblyomma americanum; AAM-02 stated identical (protein, listed as Amblyomma americanum) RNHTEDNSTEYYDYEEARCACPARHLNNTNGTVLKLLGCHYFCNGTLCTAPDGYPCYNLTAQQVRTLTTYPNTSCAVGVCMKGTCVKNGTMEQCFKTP	9.10
P1181_AMBMA: tick CKBP, Amblyomma maculatum (protein, listed as Amblyomma maculatum) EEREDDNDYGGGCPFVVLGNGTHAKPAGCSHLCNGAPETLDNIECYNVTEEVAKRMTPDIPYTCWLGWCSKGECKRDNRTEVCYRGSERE	7.72
